Provide the recorded CC50 for the entries that follow.
assay.procedure: in vitro
assay.context: human
One number for each entry, in µM.

CNC(=O)c1c(-c2ccc(Oc3ccc(F)cc3)cc2)oc2cc(N(CCCN)S(C)(=O)=O)c(C3CC3)cc12 ... 4.6

From here, focus on the item given below.
[in] Can you share its CC50? I mean this compound: CNC(=O)c1c(-c2ccc(Nc3ccccc3)cc2)oc2cc(N(CCO)S(C)(=O)=O)c(OC)cc12
[out] 30.6

----------
target.system: HCV polymerase (NS5B570n-Con1) (Hepatitis C virus genotype 1b)
Construct: contains a 21 amino acid deletion at the C-terminus relative to the full-length HCV polymerase; 6-histidine (N); made in house; host or cells: E. coli BL21 (DE) pLysS
assay.procedure: HCV NS5B RNA polymerase activity assay
Format: biochemical, HCV Con1 strain
assay.context: IC50 NS5B polymerase assay, Table I
property: pIC50
Answers are plain numbers, as −log10 of the molar value.

Recorded pIC50, per entry:
CNC(=O)c1c(-c2ccc(Oc3ccc(F)cc3F)cc2)oc2cc(N(CCO)S(C)(=O)=O)c(OC(C)C)cc12 ... 6.71
CNC(=O)c1c(-c2ccc(Nc3ccccn3)cc2)oc2cc(N(CCO)S(C)(=O)=O)c(OC)cc12 ... 6.81
CNC(=O)c1c(-c2ccc(Nc3ccccc3)cc2)oc2cc(N(CCO)S(C)(=O)=O)c(OC)cc12 ... 7.37
CCN(c1cc2oc(-c3ccc(Oc4ccc(F)cc4)cc3)c(C(=O)NC)c2cc1OC)S(C)(=O)=O ... 6.89
CNC(=O)c1c(-c2ccc(Oc3ccc(F)cc3)cc2)oc2cc(N([C@H]3CC[C@H](O)CC3)S(C)(=O)=O)c(C3CC3)cc12 ... 7.60

Hi there! I need pIC50 for each item below, if you can.
1. CNC(=O)c1c(-c2ccc(Oc3ccc(F)cc3)cc2)oc2cc(N(CCO)S(C)(=O)=O)c(OC)cc12
2. CNC(=O)c1c(-c2ccc(Nc3cccc(F)c3F)cc2)oc2cc(N(CCO)S(C)(=O)=O)c(OC)cc12
3. CNC(=O)c1c(-c2ccc(Oc3ccc(F)cc3)cc2)oc2cc(N([C@H]3CC[C@@H](O)CC3)S(C)(=O)=O)c(C3CC3)cc12
4. CNC(=O)c1c(-c2ccc(Oc3ccc(F)cc3)cc2)oc2cc(C(C)=O)c(OC)cc12
5. CNC(=O)c1c(-c2ccc(Oc3ccc(F)cc3)cc2)oc2cc(N(CCCCN)S(C)(=O)=O)c(C3CC3)cc12
6. CNC(=O)c1c(-c2ccc(Oc3ccccc3)cc2)oc2cc(-c3c(C)n[nH]c3C)c(C3CC3)cc12
7. CNC(=O)c1c(-c2ccc(Oc3ccc(F)cc3)cc2)oc2cc(N(CC(C)O)S(C)(=O)=O)c(C3CC3)cc12 (centres unmarked)
8. CNC(=O)c1c(-c2ccc(Oc3ccc(F)cc3)cc2)oc2cc(N(CCCN(C)S(C)(=O)=O)S(C)(=O)=O)c(C3CC3)cc12

[out]
1: 7.24; 2: 7.23; 3: 7.64; 4: 6.86; 5: 7.25; 6: 6.50; 7: 7.59; 8: 7.96

[in] Give pIC50 (HCV polymerase (NS5B570n-Con1) (Hepatitis C virus genotype 1b)) of the following compound: CCN(c1cc2oc(-c3ccc(Nc4ccc(F)cc4)cc3)c(C(=O)NC)c2cc1OC)S(C)(=O)=O
[out] 7.09

----------
property: melting point

Recorded melting point, per entry:
CNC(=O)c1c(-c2ccc(Oc3ccccc3)cc2)oc2cc(N3CCCS3(=O)=O)c(C3CC3)cc12 [Compound I-82] ... 174 to 176 °C
CNC(=O)c1c(-c2ccc(Oc3ccc(F)cc3)cc2)oc2cc(C(C)=O)c(OC)cc12 [Compound I-104] ... 207 to 209 °C
CNC(=O)c1c(-c2ccc(Nc3ccccn3)cc2)oc2cc(N(CCO)S(C)(=O)=O)c(OC)cc12 [Compound I-123] ... 241 to 243 °C

From here, focus on the item given below.
[in] Can you share its melting point? I mean this compound: CNC(=O)c1c(-c2ccc(Oc3ccc(F)cc3)cc2)oc2cc(N(CC(N)CO)S(C)(=O)=O)c(C3CC3)cc12.Cl (stereo not shown) [Compound I-107]
[out] 178 to 180 °C

----------
Provide the recorded pIC50 for the entries that follow.
target.system: HCV polymerase (NS5B570n-Con1) (Hepatitis C virus genotype 1b)
Construct: contains a 21 amino acid deletion at the C-terminus relative to the full-length HCV polymerase; 6-histidine (N); made in house; host or cells: E. coli BL21 (DE) pLysS
assay.procedure: HCV NS5B RNA polymerase activity assay
Format: biochemical, HCV Con1 strain
assay.context: IC50 NS5B polymerase assay, Table I
Give bare numbers, as −log10 of the molar value.

CNC(=O)c1c(-c2ccc(Oc3ccccc3)cc2)oc2cc(N(CCO)S(C)(=O)=O)c(OC)cc12 ... 7.21

Hi there! I need pIC50 for each item below, if you can.
1. CNC(=O)c1c(-c2ccc(Nc3ccccc3)cc2)oc2cc(N(CCO)S(C)(=O)=O)c(OC(C)C)cc12
2. CNC(=O)c1c(-c2ccc(Oc3ccc(F)cc3)cc2)oc2cc(N(CC(N)CO)S(C)(=O)=O)c(C3CC3)cc12.Cl (stereo not shown)
3. CNC(=O)c1c(-c2ccc(Oc3ccc(F)cc3)cc2)oc2cc(N(CC3(C)COC3)S(C)(=O)=O)c(C3CC3)cc12

[out]
1: 7.38; 2: 7.72; 3: 6.87

----------
target.system: HCV polymerase (NS5B570n-Con1) (Hepatitis C virus genotype 1b)
Construct: contains a 21 amino acid deletion at the C-terminus relative to the full-length HCV polymerase; 6-histidine (N); made in house; host or cells: E. coli BL21 (DE) pLysS
assay.procedure: HCV NS5B RNA polymerase activity assay
Assay type: biochemical, HCV Con1 strain
assay.context: IC50 NS5B polymerase assay, Table I
Rule: IC50 below 60 nM gives t. Equal to or above 60 nM gives f.

[in] Given CNC(=O)c1c(-c2ccc(Oc3ccc(F)cc3)cc2)oc2cc(N(CC3CCOCC3)S(C)(=O)=O)c(C3CC3)cc12 , is recorded IC50 strictly lower than 60 nM?
[out] f

[in] Given CCN(c1cc2oc(-c3ccc(Nc4ccccc4F)cc3)c(C(=O)NC)c2cc1OC)S(C)(=O)=O , is recorded IC50 strictly lower than 60 nM?
[out] t

[in] Given CNC(=O)c1c(-c2ccc(Oc3ccc(F)cc3)cc2)oc2cc(N(Cc3ccncc3)S(C)(=O)=O)c(C3CC3)cc12 , is recorded IC50 strictly lower than 60 nM?
[out] t

[in] Given CNC(=O)c1c(-c2ccc(Oc3ccc(F)cc3)cc2)oc2cc(N(CC(N)=O)S(C)(=O)=O)c(C3CC3)cc12 , is recorded IC50 strictly lower than 60 nM?
[out] t

[in] Given CNC(=O)c1c(-c2ccc(Oc3ccccc3)cc2)oc2cc(N3CCCCS3(=O)=O)c(C3CC3)cc12 , is recorded IC50 strictly lower than 60 nM?
[out] f

[in] Given CNC(=O)c1c(-c2ccc(Oc3ccc(F)cc3)cc2)oc2cc(C(C)(C)O)c(OC)cc12 , is recorded IC50 strictly lower than 60 nM?
[out] t

[in] Given CNC(=O)c1c(-c2ccc(Oc3ccc(F)cc3)cc2)oc2cc(NS(C)(=O)=O)c(OC)cc12 , is recorded IC50 strictly lower than 60 nM?
[out] f

----------
target.system: HCV polymerase (NS5B570n-Con1) (Hepatitis C virus genotype 1b)
Construct: contains a 21 amino acid deletion at the C-terminus relative to the full-length HCV polymerase; 6-histidine (N); made in house; host or cells: E. coli BL21 (DE) pLysS
assay.procedure: HCV NS5B RNA polymerase activity assay
Format: biochemical, HCV Con1 strain
assay.context: IC50 NS5B polymerase assay, Table I
Binning scheme for IC50: zone 1 = under 40 nM, zone 2 = from 40 nM up to 100 nM, zone 3 = 100 nM and over

[in] Entry CNC(=O)c1c(-c2ccc(Oc3ccccc3F)cc2)oc2cc(N(C)S(C)(=O)=O)c(OC)cc12 belongs to which category?
[out] zone 2

[in] Entry CNC(=O)c1c(-c2ccc(Oc3ccc(F)cc3)cc2)oc2cc(N(CCO)S(C)(=O)=O)c(C)cc12 belongs to which category?
[out] zone 2

[in] Entry CNC(=O)c1c(-c2ccc(Oc3ccc(F)cc3)cc2)oc2cc(N(CCSC)S(C)(=O)=O)c(C3CC3)cc12 belongs to which category?
[out] zone 1

[in] Entry CNC(=O)c1c(-c2ccc(Oc3ccccc3F)cc2)oc2cc(N(CCO)S(C)(=O)=O)c(C3CC3)cc12 belongs to which category?
[out] zone 1

[in] Entry CNC(=O)c1c(-c2ccc(Nc3ccc(C(C)C)cc3)cc2)oc2cc(N(CCO)S(C)(=O)=O)c(OC)cc12 belongs to which category?
[out] zone 3

[in] Entry CNC(=O)c1c(-c2ccc(Oc3ccc(F)c(F)c3)cc2)oc2cc(N(CCO)S(C)(=O)=O)c(OC)cc12 belongs to which category?
[out] zone 2

[in] Entry CNC(=O)c1c(-c2ccc(Nc3c(F)cccc3F)cc2)oc2cc(N(CCO)S(C)(=O)=O)c(OC)cc12 belongs to which category?
[out] zone 3

[in] Entry CNC(=O)c1c(-c2ccc(Oc3ccc(F)cc3)cc2)oc2cc(N(CCOC)S(C)(=O)=O)c(C3CC3)cc12 belongs to which category?
[out] zone 3

[in] Entry CNC(=O)c1c(-c2ccc(Oc3ccc(F)cc3)cc2)oc2cc(N(CC(F)(F)CN)S(C)(=O)=O)c(C3CC3)cc12 belongs to which category?
[out] zone 1

[in] Entry CCN(c1cc2oc(-c3ccc(Oc4ccc(F)cc4)cc3)c(C(=O)NC)c2cc1C1CC1)S(C)(=O)=O belongs to which category?
[out] zone 3
